Data provenance is ChEMBL document CHEMBL1122970.

System: L1210
assay overview: In vitro antitumor activity against L1210 cell line in mice.
Type: functional, Mus musculus
Parameter ID50: see the listing below.
property label: ID50 (µM)

# molecular string, property label, quantitative result
measured = [
    ("Nc1ccn([C@@H]2O[C@H](CO)[C@@H](O)[C@@H]2O)c(=O)n1", "ID50", 2.5),
    ("Nc1nc(=O)n([C@@H]2O[C@H](COP(=O)(O)O)[C@@H](O)[C@H]2O)cc1F", "ID50", 3.4),
    ("Cl.Nc1nc(=O)n([C@@H]2O[C@H](CO)[C@@H](O)[C@H]2O)cc1F", "ID50", 2.6),
    ("N.Nc1nc(=O)n([C@@H]2O[C@@H]3CO[PH](O)(O)O[C@H]3[C@H]2O)cc1F", "ID50", 0.31),
]
